Answer each item with its documented kcat.
# Substrate: O=P(O)(O)OC[C@H](O)CO
# Protocol description: coupled MDCC-PBP Pi-biosensor fluorescence assay in lipid cubic phase (monoolein)
# Assay type: biochemical, Aquifex aeolicus
# Conditions used: co-substrate 3.3-5.2 mol% 16:0-P, pH 8.0, 30 °C, no technical replicates
One number for each entry, in s⁻¹.

Below, 2 proteins whose answers are already recorded.
aaPlsY (Aquifex aeolicus VF5; E189A) (protein, full length, 192 residues, monomer, codon-optimised gene, E. coli BL21(DE3); assays: C-terminal His8 tag (p3EC); crystals: C-terminal His-eGFP removed by 3C protease; DDM-purified, reconstituted in lipid cubic phase) MKALFLVIFAYLLGSITFGEVIAKLKGVDLRNVGSGNVGATNVTRALGKKYGVLVFFLDFLKGFIPALIAVKSFGIDSWVLTFTGLASVLGHMYPVFFGFKGGKGVATALGVVFAVSPSVALFSFLVWLGIFLWKRYVSLASITATISAFLFLFVAGYPVNVLFMAIVIGALIIYRHRENINRLLTGRAHRF; 18.5
aaPlsY (Aquifex aeolicus VF5; K104A) (protein, full length, 192 residues, monomer, codon-optimised gene, E. coli BL21(DE3); assays: C-terminal His8 tag (p3EC); crystals: C-terminal His-eGFP removed by 3C protease; DDM-purified, reconstituted in lipid cubic phase) MKALFLVIFAYLLGSITFGEVIAKLKGVDLRNVGSGNVGATNVTRALGKKYGVLVFFLDFLKGFIPALIAVKSFGIDSWVLTFTGLASVLGHMYPVFFGFKGGAGVATALGVVFAVSPSVALFSFLVWLGIFLWKRYVSLASITATISAFLFLFVAGYPVNVLFMAIVIGALIIYRHRENINRLLTGREHRF; 1

Answer with the recorded kcat for the protein listed here: aaPlsY (Aquifex aeolicus VF5; N37A) (protein, full length, 192 residues, monomer, codon-optimised gene, E. coli BL21(DE3); assays: C-terminal His8 tag (p3EC); crystals: C-terminal His-eGFP removed by 3C protease; DDM-purified, reconstituted in lipid cubic phase) MKALFLVIFAYLLGSITFGEVIAKLKGVDLRNVGSGAVGATNVTRALGKKYGVLVFFLDFLKGFIPALIAVKSFGIDSWVLTFTGLASVLGHMYPVFFGFKGGKGVATALGVVFAVSPSVALFSFLVWLGIFLWKRYVSLASITATISAFLFLFVAGYPVNVLFMAIVIGALIIYRHRENINRLLTGREHRF
2.49
